Recorded values, source ChEMBL document CHEMBL4513216.

Listing: cytotoxicity at 10 µM of selected compounds
experiment: Toxicity liver stage against HepG2, at 10uM; assay type: cell-based; design: test concentration 10 uM, cell line HepG2-A16-CD81EGFP; details: human, HepG2-A16-CD81EGFP cells; read-out: INHIBITION
recorded_endpoint: cytotoxicity at 10 µM (%)

{"compound": "O=c1oc(-c2ccc(F)cc2)nn1CN1CCCCC1", "recorded_endpoint": "cytotoxicity at 10 µM", "observed": -4.35}
{"compound": "CCOc1ccc(C(=O)NS(=O)(=O)c2cncc(Br)c2)cc1OC", "recorded_endpoint": "cytotoxicity at 10 µM", "observed": -5.07}
{"compound": "CCc1ncc(C(=O)N2CCCN(C3CCCCC3)CC2)cn1", "recorded_endpoint": "cytotoxicity at 10 µM", "observed": -5.1}
{"compound": "Cc1ccc(NC2CCN(C(=O)Cc3c(C)noc3C)CC2)nn1", "recorded_endpoint": "cytotoxicity at 10 µM", "observed": -8.13}
{"compound": "CN(CC(=O)N(C)C(c1ccc(Cl)cc1)c1cccnc1)C1CC1 (stereo unspecified)", "recorded_endpoint": "cytotoxicity at 10 µM", "observed": 10.9}
{"compound": "CN(C)CCN1CC(C(=O)N(C)Cc2cc3cc(F)ccc3[nH]2)CC1=O (stereo unspecified)", "recorded_endpoint": "cytotoxicity at 10 µM", "observed": -1.03}
{"compound": "COCCN(C)C[C@@H]1CN(C(=O)c2ccc(O)c(Cl)c2)C[C@@H]1CO", "recorded_endpoint": "cytotoxicity at 10 µM", "observed": 10.5}
{"compound": "Cc1cnn(CCNCc2cc(-c3ccccc3)no2)c1", "recorded_endpoint": "cytotoxicity at 10 µM", "observed": -3.03}
{"compound": "CC(=O)NCc1ccc(C(=O)Nc2ccc3c(c2)C(=O)NC3)cc1", "recorded_endpoint": "cytotoxicity at 10 µM", "observed": 0.202}
{"compound": "O=C(Cc1ccco1)N1CCC2(CCOCC2COCC2CC2)CC1 (stereo unspecified)", "recorded_endpoint": "cytotoxicity at 10 µM", "observed": 4.65}
{"compound": "OC(COCc1ccccc1)CN1CCC(Cn2cccn2)CC1 (stereo unspecified)", "recorded_endpoint": "cytotoxicity at 10 µM", "observed": -1.49}

* * *

Catalogue of cytotoxicity at 10 µM values
assay: Toxicity liver stage against HepG2, at 10uM; format: cell-based; design: test concentration 10 uM, cell line HepG2-A16-CD81EGFP; conditions: human, HepG2-A16-CD81EGFP cells; read-out: INHIBITION

{"molecule": "C=C(Cl)CN1CCC(C(=O)c2cc(F)ccc2F)CC1", "cytotoxicity at 10 µM": "-7.26%"}
{"molecule": "Fc1cccc(N2C[C@H]3CCN(c4cccnc4)C[C@H]3C2)c1", "cytotoxicity at 10 µM": "15.4%"}
{"molecule": "Cc1nc(CN(C)Cc2cnc(N3CCOCC3)s2)no1", "cytotoxicity at 10 µM": "1.87%"}
{"molecule": "Cc1noc(CCNS(=O)(=O)N2CCCC2c2ccc(C)o2)n1 (centres undefined)", "cytotoxicity at 10 µM": "-10%"}
{"molecule": "CCOc1ccc(Cl)c(C(=O)N2CCCC(N3CCCC3)C2)n1 (centres undefined)", "cytotoxicity at 10 µM": "8.29%"}
{"molecule": "Cc1ccc2oc(=O)n(CCC(=O)N3CCN(C)C(=O)C3)c2c1", "cytotoxicity at 10 µM": "-15.6%"}
{"molecule": "Cc1c(-c2cc(C(F)F)nc3sc(C(N)=O)c(N)c23)cnn1C", "cytotoxicity at 10 µM": "10.1%"}
{"molecule": "CCC(=O)Nc1cccc(OCC(=O)N(C)Cc2nc(C)c[nH]2)c1", "cytotoxicity at 10 µM": "-4.54%"}
{"molecule": "CCCOC(=O)N1CCCn2nc(C(=O)Nc3ccccc3)cc2C1", "cytotoxicity at 10 µM": "7.23%"}
{"molecule": "CN1C(=O)CC2(CCN(S(=O)(=O)C3CC3)CC2)c2ccccc21", "cytotoxicity at 10 µM": "2.04%"}
{"molecule": "CN1CCc2[nH]cnc2C12CCN(Cc1ccc(S(C)(=O)=O)cc1)CC2", "cytotoxicity at 10 µM": "-3.72%"}
{"molecule": "O=C(C[S+]([O-])Cc1ccc(F)cc1Cl)NC1CCCC1 (centres undefined)", "cytotoxicity at 10 µM": "9.5%"}
{"molecule": "Cn1nnc2c1CCN(Cc1ccncc1)C2COCC1CC1 (centres undefined)", "cytotoxicity at 10 µM": "5.29%"}
{"molecule": "CCCC(C)C(=O)NCc1cn2cc(Br)ccc2n1 (centres undefined)", "cytotoxicity at 10 µM": "-6.6%"}
{"molecule": "O=C(c1ccoc1)N1CCC2(C1)CN(c1ncc(F)cn1)C2", "cytotoxicity at 10 µM": "-0.472%"}
{"molecule": "Cc1nc(C)c(C(=O)NCCNC(=O)Cc2cccc(F)c2)s1", "cytotoxicity at 10 µM": "-8.45%"}
{"molecule": "O=C1OCCC1N1CCN(c2cnccn2)CC1 (centres undefined)", "cytotoxicity at 10 µM": "-0.0916%"}
{"molecule": "CCN(CC(=O)NC)C(=O)c1csc(Cc2ccccc2)n1", "cytotoxicity at 10 µM": "-5.66%"}
{"molecule": "O=C(NCc1ccccc1Cn1cncn1)C1CC1", "cytotoxicity at 10 µM": "-11.3%"}
{"molecule": "Cc1cc(C)n(C2CN(CCc3ccccn3)C2)n1", "cytotoxicity at 10 µM": "3.65%"}
{"molecule": "Cc1cnc(N2CCCC3(CCN(Cc4csc(C)n4)C3=O)C2)nc1 (centres undefined)", "cytotoxicity at 10 µM": "-5.15%"}
{"molecule": "CCc1nnc2n1CCN(C(=O)C(C)Oc1ccc(C#N)cc1)C2 (centres undefined)", "cytotoxicity at 10 µM": "-7.04%"}
{"molecule": "O=C(C1CC1)N1CCCC(C2=Nc3ccccc3S(=O)(=O)N2)C1 (centres undefined)", "cytotoxicity at 10 µM": "-1.45%"}
{"molecule": "O=C(NCCSC1CCCC1)c1c(F)cccc1F", "cytotoxicity at 10 µM": "8.74%"}
